Data provenance is ChEMBL document CHEMBL3621059.

conditions: mouse, microsomes
Description: Clearance in mouse microsomes assessed per mg of protein
// CL lookup, one value per entry

| molecule | CL |
| --- | --- |
| N#Cc1ccc(-c2cncc3c2CCCC3N)cc1 (racemic) | 12 µg/min |
| CC(C)C(=O)NC1CCCc2c(-c3ccc(C#N)cc3)cncc21 (racemic) | < 10 µg/min |
| N#Cc1ccc(-c2cccnc2)cc1 | 53 µg/min |
| CCC(=O)NC1CCCc2c(-c3ccc(Cl)cc3F)cncc21 (racemic) | 21 µg/min |
| CCC(=O)NC1CCCc2c(-c3ccc(F)c(F)c3)cncc21 (racemic) | 17 µg/min |
| CC(=O)NC1CCCc2c(-c3ccc(C#N)cc3)cncc21 (racemic) | < 10 µg/min |

Q: Answer with reported CL of CCC(=O)NC1CCCc2c(-c3cc(F)c(F)cc3F)cncc21 (racemic)
Ans: < 10 µg/min

Q: Note CL for the molecule shown: CCC(=O)NC1CCCc2c(-c3ccc(Cl)c(F)c3)cncc21 (racemic)
Ans: 36 µg/min
